The measured values listed here are drawn from PubChem BioAssay (NCI).

growth: recorded values
- Tested on: NCI-H460 lung
- ASSAY_SUMMARY: NCI-60 one-dose screen, 48 h (100 = growth as untreated, 0 = no growth, -100 = all killed)
- APPLIED_CONDITIONS: 10 µM
Compounds without any hit were thinned out: in the full panel of roughly 83,000, 20% have a hit. Calls of active or inactive are those of the source. Rule for the calls: active = growth percent below 10; inactive = the rest.

// worked examples, growth included
CN(C(=O)c1ccc(C(C)(C)C)cc1)c1sc2c(c1C#N)CCC(=O)C2 35.6% (inactive)
Cc1cc(C)cc(Oc2cccc(-c3c(C)nnn3C3CCN(CCN(C)C)CC3)n2)c1 51.1% (inactive)
Cc1ccc(C(C)C)cc1NC(=O)c1ccccc1O 30.8% (inactive)

input: So what does the record say about growth for Cc1ccc(-c2cc(C(=O)N=Nc3c(O)[nH]c4ccc(Br)cc34)c3ccccc3n2)cc1 ?
output: 47.3% (inactive)

input: Item: CNCc1cccc2c1OCCCCCC[C@@](C)(O)CC1(CC1)S(=O)(=O)c1ccc(cc1)-c1cnc(N)c(n1)C(=O)N2
output: -74.8% (active)

----------
- Tested on: SN12C renal
- ASSAY_SUMMARY: NCI-60 one-dose screen, 48 h
- APPLIED_CONDITIONS: 10 µM
Compounds without any hit were thinned out: in the full panel of roughly 83,000, 20% have a hit. Active and inactive are the calls of the source. The calls were made as follows: active = growth percent below 10; inactive = the rest.
Outcomes you can answer with include only these: 1 = active, 0 = inactive

Answered cases to consult:
COMPOUND	LABEL_VALUE
CC(=O)NNc1ccc2nnc(-c3ccc(Br)cc3)n2n1	0
O=C(Cn1nc(-c2ccccc2)ccc1=O)NNC(=S)NC1CCCCC1	0
CCCCSc1nc(Nc2ccc(/C(C)=N/NC(N)=S)cc2)c(C#N)c(-c2ccc(OC)cc2)n1	1

input: // return assay outcome for CCCCCc1ccc(S(=O)(=O)Nc2cc(-c3csc(N(C)C(C)=O)n3)ccc2N2CCN(C)CC2)cc1
output: 0

input: Then O=C(Cc1ccc2c(c1)CN(C1CCC(=O)NC1=O)C2=O)NCCc1ccccc1 (configuration not stated) ?
output: 1

input: Moving on to the next compound: C#CCNC(=O)CCC(=O)OC[C@]12CC[C@@H](C(=C)C)[C@@H]1C1CC[C@@H]3[C@@]4(C)CCCNC(C)(C)[C@@H]4CC[C@@]3(C)[C@]1(C)CC2 (some centres not stated)
output: 0

input: Moving on to COc1ccc(-c2c(N)c(=O)n(C)c3ccccc23)cc1
output: 0

input: Next entry: CCCCSc1nc(Nc2ccc(/C(C)=N/NC(N)=S)cc2)c(C#N)c(-c2ccccc2)n1
output: 0

----------
- Test system: IGROV1 ovarian
- ASSAY_SUMMARY: NCI-60 one-dose screen, 48 h (100 = growth as untreated, 0 = no growth, -100 = all killed)
- APPLIED_CONDITIONS: 10 µM
Compounds without any hit were thinned out: in the full panel of roughly 83,000, 20% have a hit. Activity calls are given as the source filed them. How the source made its calls: active means growth percent below 10; inactive means the rest.
The following compounds are listed with their measured growth values.

COMPOUND	growth
O=C1Nc2ccc(Cl)cc2/C1=C/c1ccc(OCc2ccc(Br)cc2F)cc1	39.2% (inactive)
COc1ccc2nc(Cl)c(-c3cc(-c4ccccc4)nc(=S)[nH]3)cc2c1	79% (inactive)
CS(=O)(=O)Nc1ccc(-c2ccc3c(c2)ncn3-c2ccc(NC(=O)Nc3ccc(Cl)c(C(F)(F)F)c3)cc2)cc1	-43.1% (active)
COC[C@@H](CC(C)C)N=C1N/C(=C\c2ccc3ncsc3c2)C(=O)N1C	9.21% (active)
O=C(Nc1ccncc1)c1ccc(-n2c(=O)[nH]c3ccccc3c2=O)cc1	107% (inactive)

input: Quick one: growth for COc1ccc(C(C)=C(c2ccc(OCCCN(C)C)cc2)c2ccc(OCCCN(C)C)cc2)cc1 ?
output: -91.1% (active)

input: Would you mind doing CN(C)c1cccc2c(S(=O)(=O)Nc3cccc(-c4csc(NC(=O)CCCCCN5CCN(c6cc7c(cc6F)C(=O)N(C6CCC(=O)NC6=O)C7=O)CC5)n4)c3)cccc12 (stereo not drawn) as well?
output: 96.3% (inactive)

input: Request: CCOC(=O)CNC(=O)CN(Cc1ccccc1)C(=O)[C@@]1(C)CCC[C@]2(C)[C@H]3C[C@H]4C(C(C)C)=C[C@]3(CC[C@H]21)[C@@H]1C(=O)OC(=O)[C@@H]14
output: 41.8% (inactive)
